Assay: inhibitors of the yeast RAM network, pilot screen, dse1pr::URA3 reporter, 5-FOA selection (AID 869);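 note: 0% = DMSO wells with no growth and 100% = 10 µM 1-NA-PP1 with full growth; RAM network block rescues cells from 5-FOA so hits raise OD615 growth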
Details: S. cerevisiae dse1pr::URA3 5-FOA growth, OD615, 2 d; at 10 µM; hits give high values; strain carries analog-sensitive mutant Cbk1 kinase
Non-standard residues stand in square brackets, D forms with d. Residues, ends and D or L forms follow the SMILES beside them. ξ: configuration not given here. *: point of attachment. Cbz = O=C(OCc1ccccc1)*; ξV = CC(C)C(N)C(=O)O; OtBu = CC(C)(C)O*
RECORDED ENDPOINT: inhibition (%)
Please respond with the number in % and leave the unit unwritten.

Req: Please list inhibition recorded for the compound Cc1csc2nc(CNC(=O)C3CC=CCC3C(=O)O)cn12 (stereo unspecified)
Resp: 2.62

Req: Identify measured inhibition corresponding to "O=C(Cn1cnc2c(cnn2-c2ccccc2)c1=O)NC1CCCC1"
Resp: 1.77

Req: Answer with reported inhibition of "O=C(O)c1cc2c(s1)-c1ccccc1OC2"
Resp: 0.165

Req: For COc1cc(C(=O)Nc2ccc(S(=O)(=O)N3CCCCC3C)cc2)cc(OC)c1OC (stereo unspecified) , write its inhibition.
Resp: 1.7

Req: Return value of inhibition for input CC(=O)C(C)Oc1ccc2c3c(c(=O)oc2c1)CCCC3 (stereo unspecified) , no commentary.
Resp: 2.3

Req: Give the measured inhibition for "Cc1cccc(N(C)c2cc(C)nc3ncnn23)c1"
Resp: 0.99

Req: Identify inhibition associated with the compound "O=C(NCCCN1CCOCC1)NC12CC3CC(CC(C3)C1)C2"
Resp: 0.625

Req: Return inhibition for the following compound: "Cn1c(=O)[nH]c(=O)c2c1nc(SCC(=O)Nc1ccccc1)n2Cc1ccccc1"
Resp: 0.935

Req: Annotate the compound "COc1ccc(OC)c2c(C)cc(N3CCCN(C)CC3)nc12" with its measured inhibition.
Resp: 0.015

Req: Please give the documented inhibition of O=C(NC1=NCCS1)C1CC2CCC1C2 (stereo unspecified)
Resp: 1.96

Req: Please supply the value of reported inhibition for the item CCCC(NS(=O)(=O)c1ccc(Br)cc1)C(=O)O (stereo unspecified)
Resp: 0.57

Req: Complete the entry with inhibition for "Cc1ccc(C(=O)N2CCN(C)CC2)cc1S(=O)(=O)N1CCCCC1"
Resp: 1.31

Req: Give inhibition for the following compound: "Cc1ccc(-c2nc3cccnc3o2)cc1NC(=O)COc1ccc(Cl)cc1C"
Resp: 1.5

Req: Supply recorded inhibition for "CN1CCc2c(sc3c2c(=O)n(-c2ccc(Cl)cc2)c2nncn32)C1" here.
Resp: 1.45

Req: Read the entry CC1=C(C(N)=O)C(c2ccccn2)n2nc(SCc3ccccc3Cl)nc2N1 (stereo unspecified) and write its reported inhibition.
Resp: 1.04

Req: Look up and report measured inhibition for this entry: "Cc1cc(NC(=O)CSc2nnc(C)c(=O)[nH]2)no1"
Resp: 2.48

Req: Input "COc1ccc(C)cc1NC(=O)c1cc2c(CO)cnc(C)c2oc1=N" , output reported inhibition.
Resp: 1.31

Req: Given the compound "CCOc1ccc(N2CC(=O)SC2=S)cc1" , write its reported inhibition.
Resp: 0.425

Req: For the compound COCCNC(=O)NC1(C(F)(F)F)Oc2ccc(Cl)cc2O1 (stereo unspecified) , give its reported inhibition.
Resp: 0.43

Req: // fetch inhibition given entry "Cc1ccccc1NC(=O)CSC(N)=O"
Resp: 0.48

Req: Report inhibition, nothing else, for this compound: "N=c1c2c(n(Cc3ccc(F)cc3)c3c1CCC3)CCC2"
Resp: 0.8

Req: Identify the reported inhibition for the following entry. "COc1ccc(-c2csc(N3CCN(C(=O)c4ccco4)CC3)n2)cc1"
Resp: 0.95

Req: Dear colleague, please send me the reported inhibition for CCN1CCN(C(=O)CS(=O)Cc2nc(-c3ccc(OC)cc3)oc2C)CC1 (stereo unspecified) when you can.
Resp: 0.945

Req: Provide inhibition value for the following compound: CC1(C)SCC(C(=O)O)N1C=O (stereo unspecified)
Resp: 1.66

Req: Return value of inhibition for input COc1ccccc1C1C=C(c2ccccc2)Nc2nnnn21 (stereo unspecified) , no commentary.
Resp: 0.05

Req: Answer with reported inhibition of CC(C)C(NC(=O)OCc1ccccc1)C(=O)NCC(=O)OC(C)(C)C (stereo unspecified) (Cbz-[ξV]-Gly-OtBu)
Resp: 1.82

Req: Entry "COc1ccc(CNc2oc(COc3ccccc3)nc2C#N)cc1" needs its inhibition filled in; supply it.
Resp: 4.33

Req: For the compound "O=C(Cn1cc2c(n1)CCCCC2)NCc1ccccc1" , report inhibition.
Resp: 1.06

Req: Indicate the recorded inhibition value for this compound: "O=C(Cn1c(=O)sc2ccccc21)Nc1ccccc1C(=O)O"
Resp: 3.53

Req: Please give the documented inhibition of "CCN(CCNC(=O)CCCn1nc(C)n2c(cc3sccc32)c1=O)c1ccccc1"
Resp: -0.2

Req: Answer with reported inhibition of CCOC(=O)C1=C(C)Nc2nc(C)nn2C1c1ccc(OCC)c(OC)c1 (stereo unspecified)
Resp: 1.44

Attribution: PubChem BioAssay
